Provenance of the data: BindingDB's records for doi:10.1016/s0968-0896(02)00069-x

Some molecules, each annotated with its measured pIC50.
biological target: Cyclin-dependent kinase 1/G2/mitotic-specific cyclin-B (Marthasterias glacialis, UniProt P15206+Q9DGD3); assay: Kinase Inhibition Assay; settings: pH 7.2; 30 °C
Sequence (Q9DGD3 whole entry): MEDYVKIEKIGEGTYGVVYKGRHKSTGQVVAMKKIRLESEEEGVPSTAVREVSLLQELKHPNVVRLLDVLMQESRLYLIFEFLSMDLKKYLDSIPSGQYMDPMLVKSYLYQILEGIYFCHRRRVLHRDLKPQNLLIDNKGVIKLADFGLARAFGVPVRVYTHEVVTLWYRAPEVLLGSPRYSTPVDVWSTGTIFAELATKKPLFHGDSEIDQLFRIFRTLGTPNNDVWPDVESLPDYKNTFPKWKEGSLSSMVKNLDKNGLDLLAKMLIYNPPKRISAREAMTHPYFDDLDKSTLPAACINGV
Sequence (P15206 whole entry): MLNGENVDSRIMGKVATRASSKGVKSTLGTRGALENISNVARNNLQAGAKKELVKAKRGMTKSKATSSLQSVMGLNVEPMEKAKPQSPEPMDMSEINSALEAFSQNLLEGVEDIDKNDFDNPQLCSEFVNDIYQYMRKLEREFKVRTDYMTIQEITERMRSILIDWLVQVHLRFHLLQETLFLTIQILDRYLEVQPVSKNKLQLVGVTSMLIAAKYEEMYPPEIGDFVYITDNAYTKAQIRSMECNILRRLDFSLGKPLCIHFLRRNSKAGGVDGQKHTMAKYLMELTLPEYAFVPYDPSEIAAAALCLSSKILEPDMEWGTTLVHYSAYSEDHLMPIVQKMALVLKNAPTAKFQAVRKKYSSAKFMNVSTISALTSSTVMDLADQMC
Note on pIC50: it is the negative log10 of concentration, concentration in mol/L.

// worked examples, pIC50 included
>>> observed_result("Clc1n[nH]c2nc3ccccc3nc12 [3-Chloro-1H-pyrazolo[3,4-b]quinoxaline]")
4.66
>>> observed_result("Nc1n[nH]c2nc3ccccc3nc12 [1H-pyrazolo[3,4-b]quinoxalin-3-amine]")
6.22
>>> observed_result("COc1ccc2[nH]c3nnc(N)c-3nc2c1")
5.32

// sample `Nc1n[nH]c2nc3ccc(Cl)cc3nc12` , its pIC50 was 5.34
